TARGET UNDER TEST: T1, mouse thyroid-stimulating hormone receptor (TSHR) (mouse, UniProt P47750 22-764)
T1 construct: whole, on cells; Overexpressed on 293 cells; also called mouse TSHR; murine TSHR
T1 sequence (P47750 22-764): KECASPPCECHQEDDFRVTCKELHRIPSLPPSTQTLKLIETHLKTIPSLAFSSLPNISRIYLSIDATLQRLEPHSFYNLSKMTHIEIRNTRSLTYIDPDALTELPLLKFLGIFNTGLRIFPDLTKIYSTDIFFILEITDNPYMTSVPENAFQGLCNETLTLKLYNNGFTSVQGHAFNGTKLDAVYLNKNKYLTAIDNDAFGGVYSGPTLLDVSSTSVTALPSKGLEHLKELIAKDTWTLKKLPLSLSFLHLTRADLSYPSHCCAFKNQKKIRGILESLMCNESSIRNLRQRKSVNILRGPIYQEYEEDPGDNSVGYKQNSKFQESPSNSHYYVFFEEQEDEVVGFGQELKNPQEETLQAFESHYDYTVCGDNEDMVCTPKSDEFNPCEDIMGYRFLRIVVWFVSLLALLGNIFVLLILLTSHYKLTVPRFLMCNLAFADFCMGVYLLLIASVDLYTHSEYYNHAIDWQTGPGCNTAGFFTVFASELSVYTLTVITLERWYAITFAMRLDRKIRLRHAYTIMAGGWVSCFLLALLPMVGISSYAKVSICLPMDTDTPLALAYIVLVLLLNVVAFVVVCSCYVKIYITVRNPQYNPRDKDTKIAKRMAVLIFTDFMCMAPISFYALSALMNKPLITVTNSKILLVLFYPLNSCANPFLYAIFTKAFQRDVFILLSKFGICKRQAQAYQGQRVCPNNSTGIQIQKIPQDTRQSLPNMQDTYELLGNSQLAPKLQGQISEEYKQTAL
PROCEDURE SUMMARY: flow cytometry (FACS), 293 cells overexpressing mouse TSHR
MEASUREMENT NAME: pEC50
In simple prose, pEC50 is minus the logarithm base ten of a concentration in moles per litre.

For humanized antibody cAb01-VH1-DA-VL2 (antibody, human IgG4 S228P, kappa, V domains shown, Humanized from mAb001) VH: EVQLVESGGGLVKPGGSLRLSCAASGFTLSDYYIYWVRQAPGKGLEWVSTISDAVIYTYYADSVKGRFTISRDNAKNSLYLQMNSLRAEDTAVYYCARAYGSSEVMDYWGQGTLVTVSS VL: EIVLTQSPATLSLSPGERATLSCSASSSVSYMHWYQQKPGQAPRRWIYDTSKLASGIPARFSGSGSGTDYTLTISSLEPEDFAVYYCQQWSSNPWTFGGGTKLEIKR , what is its reported pEC50? 8.62

For humanized antibody cAb01-VH3-DA-VL2 (antibody, human IgG4 S228P, kappa, V domains shown, Humanized from mAb001) VH: EVQLVESGGGLVKPGGSLRLSCAASGFTLSDYYIYWVRQAPGKRLEWVATISDAVIYTYYADSVKGRFTISRDNAKNSLYLQMNSLRAEDTAVYFCARAYGSSEVMDYWGQGTLVTVSS VL: EIVLTQSPATLSLSPGERATLSCSASSSVSYMHWYQQKPGQAPRRWIYDTSKLASGIPARFSGSGSGTDYTLTISSLEPEDFAVYYCQQWSSNPWTFGGGTKLEIKR , what is its reported pEC50? 8.68

For humanized antibody cAb01-VH2-DA-VL2 (antibody, human IgG4 S228P, kappa, V domains shown, Humanized from mAb001) VH: EVQLVESGGGLVKPGGSLRLSCAASGFTLSDYYIYWVRQAPGKGLEWVATISDAVIYTYYADSVKGRFTISRDNAKNSLYLQMNSLRAEDTAVYFCARAYGSSEVMDYWGQGTLVTVSS VL: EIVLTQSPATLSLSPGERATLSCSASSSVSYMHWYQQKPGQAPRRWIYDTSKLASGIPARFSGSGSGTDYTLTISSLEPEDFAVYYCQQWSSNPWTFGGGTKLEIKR , what is its reported pEC50? 8.67

For humanized antibody cAb01-VH1-DA-VL3 (antibody, human IgG4 S228P, kappa, V domains shown, Humanized from mAb001) VH: EVQLVESGGGLVKPGGSLRLSCAASGFTLSDYYIYWVRQAPGKGLEWVSTISDAVIYTYYADSVKGRFTISRDNAKNSLYLQMNSLRAEDTAVYYCARAYGSSEVMDYWGQGTLVTVSS VL: EIVLTQSPATLSLSPGERATLSCSASSSVSYMHWYQQKPGQAPKRWIYDTSKLASGVPARFSGSGSGTDYTLTISSLEPEDFAVYYCQQWSSNPWTFGGGTKLEIKR , what is its reported pEC50? 8.54
